run.description: in vivo
test.context: mouse, ip
API: label(entry) gives true if the entry's LD50 at 336 h is strictly smaller than 400 mg/kg; on equality or larger values it gives false.

Use the examples below as a reference point.
1) COc1ccc(N(CCCC(=O)O)C(=O)CCN(C(=O)c2ccc(Cl)cc2)c2ccc(OC)cc2)cc1 true
2) COc1ccc(N(CCCC(=O)O)C(=O)CN(C(=O)c2ccc(Cl)cc2)c2ccc(OC)cc2)cc1 false
3) COc1ccc(N(CC(=O)N(CCCC(=O)O)c2ccc(OC)cc2)C(C)=O)cc1 false

Q: Dear reviewer, please state whether `COc1ccc(C(=O)N[C@@H](Cc2ccccc2)C(=O)N(CCCC(=O)O)c2ccc(OC)cc2)cc1` has LD50 at 336 h strictly beneath 400 mg/kg.
Ans: true

Q: Field: below-cutoff. Rule: recorded LD50 at 336 h strictly less than 400 mg/kg. Subject: `COc1ccc(N(CCCC(=O)O)C(=O)CCN(C(C)=O)c2c(C)cccc2C)cc1`
Ans: false

Q: In plain terms, does `COc1ccc(N(CCCC(=O)N(CCCC(=O)O)c2c(C)cccc2C)C(=O)c2ccc(Cl)cc2)cc1` come in under 400 mg/kg for LD50 at 336 h?
Ans: false

Q: Regarding `Cc1cccc(C)c1N(CCCC(=O)N(C)CC(=O)O)C(=O)c1ccc(Cl)cc1` , kindly confirm whether its LD50 at 336 h is beneath 400 mg/kg.
Ans: false

###

Field: selectivity ratio. Provide a value for each of the compounds that follow.
run.description: Influence on the pancreatic secretion of the narcotized rat after intraduodenal application
Assay type: in vivo, rat (male Sprague-Dawley)
test.context: in vivo; Table I; LD50 mouse i.p. / ED50 pancreatic secretion rat i.d.; read-out: TQ (LD50/ED50), pancreatic secretion
Answers are plain numbers.

// below: answered compounds
compound	selectivity ratio
COc1ccc(N(CC(=O)N(CCCC(=O)O)c2ccc(OC)cc2)C(C)=O)cc1	1200
COc1ccc(N(CCCC(=O)O)C(=O)CCN(C(C)=O)c2c(C)cccc2C)cc1	86

Note: attention shifts to another entry.
Q: Consider the compound COc1ccc(N(CCCC(=O)O)C(=O)C(C)N(C(=O)c2ccco2)c2ccc(OC)cc2)cc1 (stereo not drawn) and give its measured selectivity ratio.
Ans: 150

###

Test system: pancreatic secretion
run.description: Influence on the pancreatic secretion of the narcotized rat after intraduodenal application
Assay type: in vivo, rat (male Sprague-Dawley)
test.context: Rattus norvegicus, 0.5 h, read-out: Pancreatic Secretion ED50 (dose which brings about an increase in the pancreatic secretion by a maximum of 50%)
parameter.measured: ED50

Observe how each entry below is paired with its result.
compound	measurement.target	ED50
Cc1cccc(C)c1N(CC(=O)NCC(=O)O)C(=O)c1ccc(Cl)cc1 [Serial No. 6]	pancreatic secretion	~5 mg/kg
COc1ccc(N(CCCC(=O)O)C(=O)CCN(C(=O)c2ccc(Cl)cc2)c2ccc(OC)cc2)cc1 [Serial No. 10]	pancreatic secretion	~1 mg/kg

Q: For pancreatic secretion, provide ED50 of CCc1cccc(C)c1N(CCCC(=O)O)C(=O)CCN(C(C)=O)c1c(C)cccc1C [Serial No. 22] please.
Ans: 3 mg/kg

###

Give measured selectivity ratio for each item. Keep answers brief.
run.description: Influence on the pancreatic secretion of the narcotized rat after intraduodenal application
Type: in vivo, rat (male Sprague-Dawley)
test.context: in vivo; Table I; LD50 mouse i.p. / ED50 pancreatic secretion rat i.d.; read-out: TQ (LD50/ED50), pancreatic secretion

1) COc1ccc(N(CC(=O)N(C)CC(=O)O)C(=O)c2ccc(Cl)cc2)cc1 > 67
2) Cc1cccc(C)c1N(CCCC(=O)N(C)CC(=O)O)C(=O)c1ccc(Cl)cc1 70
3) COc1ccc(N(CCCC(=O)O)C(=O)CCN(C(=O)c2ccc(Cl)cc2)c2ccc(OC)cc2)cc1 ~220

Would you be so kind as to report selectivity ratio for each listed record?
1. COc1cc(C(=O)N(CCCC(=O)NCCCC(=O)O)c2c(C)cccc2C)cc(OC)c1OC
2. COc1ccc(N(CC(=O)NCC(=O)O)C(=O)c2ccc(Cl)cc2)cc1

Ans:
["~800", "> 67"]

Q: Item `Cc1cccc(C)c1N(CC(=O)NCC(=O)O)C(=O)c1ccc(Cl)cc1` has what recorded selectivity ratio?
Ans: ~80
